target: EsaR (Pantoea stewartii subsp. stewartii); construct: expressed in transfected cells; host or cells: E. coli JLD271 (K12 ΔsdiA), arabinose-induced pJN105-esaR; experiment: cell-based; conditions: 3.5 h, read-out: EsaR-repressed (pesaR) [%] agonism
Give activation at 100 µM for every item shown.
Just the number in %, nothing appended.

-- ask Return reported activation at 100 µM. Input compound: O=C(Cc1ccc(Br)cc1)N[C@H]1CCOC1=O
-- reply 18

-- ask Return reported activation at 100 µM. Input compound: O=C(Cc1cc(C(F)(F)F)cc(C(F)(F)F)c1)N[C@H]1CCOC1=O
-- reply 41

-- ask Return reported activation at 100 µM. Input compound: O=C(N[C@H]1CCOC1=O)c1ccccc1
-- reply 6

-- ask Return reported activation at 100 µM. Input compound: O=C(Cc1ccccc1F)N[C@H]1CCOC1=O
-- reply -3

-- ask Return reported activation at 100 µM. Input compound: O=C(Cc1ccccc1I)N[C@H]1CCOC1=O
-- reply 9

-- ask Return reported activation at 100 µM. Input compound: O=C(Cc1ccccc1Cl)N[C@H]1CCOC1=O
-- reply 5

----------
Target: EsaR (Pantoea stewartii subsp. stewartii, UniProt P54293)
Construct: expressed in transfected cells; host or cells: E. coli JLD271 (K12 ΔsdiA), arabinose-induced pJN105-esaR
Sequence (P54293 whole entry): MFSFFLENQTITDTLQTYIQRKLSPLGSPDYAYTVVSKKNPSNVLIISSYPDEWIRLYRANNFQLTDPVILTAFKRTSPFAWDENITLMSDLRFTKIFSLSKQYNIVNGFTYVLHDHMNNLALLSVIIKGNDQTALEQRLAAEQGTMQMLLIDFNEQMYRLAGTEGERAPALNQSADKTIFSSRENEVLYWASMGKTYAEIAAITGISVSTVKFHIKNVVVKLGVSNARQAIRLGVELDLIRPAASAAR
Assay: P. stewartii ESN51 (ΔesaI) GFP reporter with EsaR-activated promoter (pesaS)
Format: cell-based
Description: EsaR transcriptional activation and repression were examined using E. coli and P. stewartii reporters (strains and plasmids listed in Table S1; see Methods section for assay details). […] Compound stocks were prepared and plated as described for E. coli reporter assays. […] Cultures were diluted to an OD600 of 0.05, and 198 μL was added to each well of a clear-bottom, black 96-well plate and incubated for 6 h at 28 °C (200 rpm) before reading fluorescence and OD600.
assay.endpoint: pEC50
In plain terms, pEC50 is the concentration in mol/L turned into minus its base-10 logarithm.

-- ask Return reported pEC50. Input molecule: O=C1OCC[C@@H]1NS(=O)(=O)c1ccc(Br)cc1
-- reply 4.62

-- ask Return reported pEC50. Input molecule: O=C1OCC[C@@H]1NS(=O)(=O)c1ccc(Cl)c(F)c1
-- reply 5.57

----------
Give EC50 for every item shown.
target: UniProtKB Q1A4U9; assay: E. coli GFP reporter with ExpR2-activated promoter (prsmA)
Sequence (Q1A4U9 entry or part of it): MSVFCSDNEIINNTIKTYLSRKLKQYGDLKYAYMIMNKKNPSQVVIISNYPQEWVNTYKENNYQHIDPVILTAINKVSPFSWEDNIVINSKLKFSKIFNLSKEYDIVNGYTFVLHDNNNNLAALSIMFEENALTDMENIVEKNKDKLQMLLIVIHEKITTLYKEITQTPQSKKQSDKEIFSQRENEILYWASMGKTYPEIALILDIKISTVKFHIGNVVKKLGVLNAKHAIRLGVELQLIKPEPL
Answer format reminder: number followed by unit.

-- ask Provide measured EC50 on UniProtKB Q1A4U9 for CCCC(=O)CC(=O)N[C@H]1CCOC1=O [OHHL, 3-oxo-hexanoyl HL, reference compound] please.
-- reply 3.9 nM

-- ask Provide measured EC50 on UniProtKB Q1A4U9 for O=C(Cc1cccc([N+](=O)[O-])c1)N[C@H]1CCOC1=O [C14, 3-NO2 PHL] please.
-- reply 160 nM

----------
molecular target: EsaR (Pantoea stewartii subsp. stewartii, UniProt P54293); construct: expressed in transfected cells; host or cells: E. coli JLD271 (K12 ΔsdiA), arabinose-induced pJN105-esaR; test: cell-based; conditions: E. coli EsaR reporters, primary screen at 100 μM
assay.endpoint: EsaR agonism, in words

Check out these entries, answers already filled in.
CSc1cccc(CC(=O)N[C@H]2CCOC2=O)c1 [E7, 3-SCH3 PHL] = nearly inactive
O=C(Cc1cccc(I)c1)N[C@H]1CCOC1=O [C11, 3-iodo PHL] = agonized EsaR
O=C(Cc1ccc(Cl)cc1)N[C@H]1CCOC1=O [C5, 4-Cl PHL] = nearly inactive
O=C(CCc1ccc(Br)cc1)N[C@H]1CCOC1=O [B7, 4-Br phenylpropanoyl HL] = agonized EsaR
CCCCCC(=O)CC(=O)N[C@H]1CCOC1=O [OOHL, 3-(oxo)-octanoyl HL, reference compound] = strongly activated

-- ask Provide measured EsaR agonism, in words on EsaR (Pantoea stewartii subsp. stewartii, UniProt P54293) for CCCCCC(=O)N[C@H]1CCOC1=O [HHL, hexanoyl HL, reference compound] please.
-- reply strongly activated

-- ask Provide measured EsaR agonism, in words on EsaR (Pantoea stewartii subsp. stewartii, UniProt P54293) for CCCCCCCCCC(=O)CC(=O)N[C@H]1CCOC1=O [OdDHL, 3-(oxo)-dodecanoyl HL, reference compound] please.
-- reply agonized EsaR

----------
target: EsaR (Pantoea stewartii subsp. stewartii, UniProt P54293); construct: expressed in transfected cells; host or cells: E. coli JLD271 (K12 ΔsdiA), arabinose-induced pJN105-esaR; experiment: cell-based; details: 3.5 h, read-out: EsaR-activated (pesaS) [%] agonism
assay.endpoint: activation at 100 µM (%)
Just the number in %, nothing appended.

-- ask Return reported activation at 100 µM. Input molecule: COc1cccc(CC(=O)N[C@H]2CCOC2=O)c1 [E2]
-- reply 4

-- ask Return reported activation at 100 µM. Input molecule: CCCCCC(=O)CC(=O)N[C@H]1CCOC1=O [OOHL, 3-(oxo)-octanoyl HL, reference compound]
-- reply 100

-- ask Return reported activation at 100 µM. Input molecule: O=C(Cc1cccc([N+](=O)[O-])c1)N[C@H]1CCOC1=O
-- reply 62

-- ask Return reported activation at 100 µM. Input molecule: O=C(Cc1cccc(I)c1)N[C@H]1CCOC1=O
-- reply 65

-- ask Return reported activation at 100 µM. Input molecule: O=C(Cc1ccccc1[N+](=O)[O-])N[C@H]1CCOC1=O
-- reply -10

-- ask Return reported activation at 100 µM. Input molecule: O=C(N[C@H]1CCOC1=O)c1ccccc1
-- reply 2

-- ask Return reported activation at 100 µM. Input molecule: O=C(/C=C/c1ccccc1)N[C@H]1CCOC1=O
-- reply 12

-- ask Return reported activation at 100 µM. Input molecule: O=C(Cc1cccc2ccccc12)N[C@H]1CCOC1=O
-- reply -11

-- ask Return reported activation at 100 µM. Input molecule: O=C(Cc1cc(C(F)(F)F)cc(C(F)(F)F)c1)N[C@H]1CCOC1=O
-- reply 60

-- ask Return reported activation at 100 µM. Input molecule: CCCCCCCCCCCC(=O)CC(=O)N[C@H]1CCOC1=O [OtDHL, reference compound]
-- reply 16

-- ask Return reported activation at 100 µM. Input molecule: O=C(CCc1ccccc1)N[C@H]1CCOC1=O
-- reply 23

-- ask Return reported activation at 100 µM. Input molecule: O=C(Cc1ccccc1I)N[C@H]1CCOC1=O
-- reply -9

-- ask Return reported activation at 100 µM. Input molecule: O=C(Cc1cccc(Cl)c1)N[C@H]1CCOC1=O
-- reply 49

-- ask Return reported activation at 100 µM. Input molecule: CCCCCCCC(=O)CC(=O)N[C@H]1CCOC1=O [ODHL, reference compound]
-- reply 65

-- ask Return reported activation at 100 µM. Input molecule: O=C(Cc1ccc2ccccc2c1)N[C@H]1CCOC1=O
-- reply 0

-- ask Return reported activation at 100 µM. Input molecule: CCCC(=O)CC(=O)N[C@H]1CCOC1=O [OHHL, 3-oxo-hexanoyl HL, reference compound]
-- reply 100

-- ask Return reported activation at 100 µM. Input molecule: CCCCCCCC(=O)N[C@H]1CCOC1=O [OHL, octanoyl HL, reference compound]
-- reply 98

-- ask Return reported activation at 100 µM. Input molecule: CCCC(=O)N[C@H]1CCOC1=O [BHL, reference compound]
-- reply 26

-- ask Return reported activation at 100 µM. Input molecule: CSc1cccc(CC(=O)N[C@H]2CCOC2=O)c1
-- reply 23

-- ask Return reported activation at 100 µM. Input molecule: O=C(Cc1cccc(Br)c1)N[C@H]1CCOC1=O
-- reply 55

-- ask Return reported activation at 100 µM. Input molecule: O=C(Cc1ccc(F)cc1)N[C@H]1CCOC1=O
-- reply 4

----------
biological target: EsaR (Pantoea stewartii subsp. stewartii, UniProt P54293); construct: expressed in transfected cells; host or cells: E. coli JLD271 (K12 ΔsdiA), arabinose-induced pJN105-esaR; experiment: cell-based; conditions: 3.5 h, read-out: EsaR-activated (pesaS) [%] agonism
assay.endpoint: activation at 100 µM (%)
Just the number in %, nothing appended.

-- ask Return reported activation at 100 µM. Input compound: CCCCCCCCCC(=O)N[C@H]1CCOC1=O [DHL, reference compound]
-- reply 17

-- ask Return reported activation at 100 µM. Input compound: O=C(Cc1ccc(Cl)cc1)N[C@H]1CCOC1=O [C5, 4-Cl PHL]
-- reply -1

-- ask Return reported activation at 100 µM. Input compound: O=C(Cc1ccccc1)N[C@H]1CCOC1=O [C1]
-- reply 17

-- ask Return reported activation at 100 µM. Input compound: CCCCCCCCCCCCCCCC(=O)N[C@H]1CCOC1=O [hDHL, reference compound]
-- reply 25

-- ask Return reported activation at 100 µM. Input compound: O=C(Cc1ccc(Br)cc1)N[C@H]1CCOC1=O [K3]
-- reply 9

-- ask Return reported activation at 100 µM. Input compound: CCCCCCCCCCCC(=O)N[C@H]1CCOC1=O [dDHL, reference compound]
-- reply 45

-- ask Return reported activation at 100 µM. Input compound: Cc1cccc(CC(=O)N[C@H]2CCOC2=O)c1 [E1]
-- reply 25

-- ask Return reported activation at 100 µM. Input compound: O=C(CCc1ccc(Br)cc1)N[C@H]1CCOC1=O [B7, 4-Br phenylpropanoyl HL]
-- reply 56

-- ask Return reported activation at 100 µM. Input compound: O=C(N[C@H]1CCOC1=O)c1ccc(Br)cc1 [B6]
-- reply -4

-- ask Return reported activation at 100 µM. Input compound: CCCCCC(=O)N[C@H]1CCOC1=O [HHL, hexanoyl HL, reference compound]
-- reply 100
